# test-name: protein stability index of a GFP-peptide fusion (yeast GPS) (PSI 1-4); higher = more stable; sorted into four equal gates, so the index is relative within each strain
# condition: pdr5∆
readout-type: protein stability index
Answer as a number with no unit attached.

sequence-chain	measured
FVSYFGKQIKSTIYNWG [YML103C/NUP188]	1.39

# get_value(readout='protein stability index', item= RQFSNEEVNRCYLRWQH [SNF2] )
2.78

What would you report for SHDKKTKCSTVVKASEL [SRP14] ?
3.46

What would you report for PEDALVNDFSDITSDQL [SMC3] ?
2.85

What would you report for NIKNTNEEATPIPSSET [RRP6] ?
2.98

What would you report for KTLCARAVANRTDATFI [RPT1] ?
1.37

What would you report for MIIFLKNYDATDKPFSS [CSI1] ?
2.85

====

# test-name: protein stability index of a GFP-peptide fusion (yeast GPS) (PSI 1-4); higher = more stable; sorted into four equal gates, so the index is relative within each strain
# condition: doa10∆
readout-type: protein stability index
Answer as a number with no unit attached.

# count of solved cases: 5
sequence-chain	readout-type	measured
RPPNGIKNFKSLLLSSS [SSN2]	protein stability index	1.51
QACGLVKNLSLMSCISV [RPB2]	protein stability index	1.49
ARHKKKVENLDYMYENG [YML031W/NDC1]	protein stability index	3.41
STDKLVQCHGSFATATC [SIR2]	protein stability index	2.72
AFLSKVPEFFQTANEKH [SRP14]	protein stability index	3.21

# get_value(readout='protein stability index', item= EPIRFLPNQFPLKIHRT [SWI1] )
1.66

What would you report for IQKQIETIQADLNHVTE [SMC2] ?
2.96

What would you report for EHIKEGSEIAISSLGYR [SWI3] ?
2.78

What would you report for NVRALYMRLWEINETEF [RMP1] ?
3

What would you report for IKKMLHLVWMKGTNDEG [YCS4] ?
3.17

What would you report for HVFQYANRPRLVGRKPA [RPC37] ?
2.86

What would you report for NMVRNNNNNTIDESMPD [GRR1] ?
2.83

What would you report for KEYENHSGELMRQQSKE [SMC1] ?
2.83

What would you report for PTRMVRVAKGSGTSVFE [SRP54] ?
2.94

What would you report for PKLKRIGLVKCTQMTDE [GRR1] ?
2.95

====

# test-name: protein stability index of a GFP-peptide fusion (yeast GPS) (PSI 1-4); higher = more stable; sorted into four equal gates, so the index is relative within each strain
# condition: san1∆
readout-type: protein stability index

# count of solved cases: 3
sequence-chain	protein stability index
SEQKMKEDADLKRMEIL [SIR4]	3.49
LLEETQAKLKKNVETLE [SMC4]	3.31
LTSNLSNYSRTMTISHL [YJL039C/NUP192]	1.98

# get_value(readout='protein stability index', item= PSLKFKPKAVARKSKEE [RPC53] )
2.43

What would you report for FSKKGNEPLSEIEIEGV [YAR002W/NUP60] ?
3.04

What would you report for EELINAAKGSSTSYAIK [RPS5] ?
1.43

What would you report for TAQEINFKMLVLLATWN [IRR1] ?
2.14

====

# test-name: protein stability index of a GFP-peptide fusion (yeast GPS) (PSI 1-4); higher = more stable; sorted into four equal gates, so the index is relative within each strain
# condition: doa10∆
Mark Not fulfilled for protein stability index values under 2, and Fulfilled for everything at or above.

sequence-chain	discrete-label
LFQNVPEQGEEPMKQLN [YAR002W/NUP60]	Fulfilled

For this sequence, is measured protein stability index 2 or higher? KREASRGFFDILSLATE [MCD1]
Fulfilled

What would you report for LLERYIGNLITRQFEGR [PRP8] ?
Fulfilled

What would you report for QKTRVKLLFDHDELDMN [ESC2] ?
Fulfilled

Data provenance is the supplement of paper PMC9732359.
